The measurements presented in this section are drawn from patent US4177350A.

# METHOD: in vivo
# CONDITIONS: mouse, po
ENDPOINT: LD50

Clc1ccc(OCCOC(Cn2ccnc2)c2ccc(Cl)cc2Cl)cc1 (stereo not drawn) [Example 28]: > 3000 mg/kg
Clc1ccc(OCCOCCOC(Cn2ccnc2)c2ccc(Cl)cc2Cl)cc1 (stereo not drawn) [Example 17]: 2500 mg/kg
Clc1ccc(C(Cn2ccnc2)OCSC2CCCCC2)c(Cl)c1 (stereo not drawn) [Example 22]: > 3000 mg/kg
Clc1ccc(OCCCOC(Cn2ccnc2)c2ccc(Cl)cc2Cl)cc1 (stereo not drawn) [Example 30]: > 4000 mg/kg
Clc1ccc(OCOC(Cn2ccnc2)c2ccc(Cl)cc2Cl)cc1 (stereo not drawn) [Example 4]: ~2750 mg/kg
Clc1ccc(C(Cn2ccnc2)OCCCOc2ccccc2)c(Cl)c1 (stereo not drawn) [Example 20]: ~2400 mg/kg
Clc1ccc(C(Cn2ccnc2)OCCOc2ccccc2)c(Cl)c1 (stereo not drawn) [Example 27]: ~800 mg/kg
Clc1ccc(C(Cn2ccnc2)OCOc2ccc(-c3ccccc3)cc2)c(Cl)c1 (stereo not drawn) [Example 9]: ~3500 mg/kg
COc1ccc(OCOC(Cn2ccnc2)c2ccc(Cl)cc2Cl)cc1 (stereo not drawn) [Example 7]: 2600 mg/kg
Clc1ccc(OCCCSC(Cn2ccnc2)c2ccc(Cl)cc2Cl)cc1 (stereo not drawn) [Example 33]: > 1000 mg/kg

Dear colleague, could you please provide LD50 for the compounds listed below?
1. CSCOC(Cn1ccnc1)c1ccc(Cc2ccc(Cl)cc2)cc1 (stereo not drawn) [Example 19]
2. Clc1ccc(SCCSC(Cn2ccnc2)c2ccc(Cl)cc2Cl)cc1 (stereo not drawn) [Example 21]

1: 970 mg/kg; 2: > 3000 mg/kg
